Value source: PubChem BioAssay AID248

Test system: L1210 leukemia ip in BDF1 mice, survival T/C
MEASUREMENT NOTES: NCI In Vivo Anticancer Drug Screen. Data for tumor model L1210 Leukemia (intraperitoneal) in B6D2F1 (BDF1) mice
ASSAY CONDITIONS: endpoint: mean survival time; dose: 100.0 mg/kg/injection; schedule: Q01DX001 (ip); vehicle: saline with Tween-80; higher = longer survival
Experimental: The antitumor activity of compounds was measured in mice bearing transplantable tumors. Survival or tumor size were measured and the results are expressed as the measurement made in the treated group (T) divided by the measurement made in the vehicle treated control group (C). The tumor model used in this assay is L1210 Leukemia (intraperitoneal) in B6D2F1 (BDF1) mice
Toxic doses and inconclusive results are not listed.
// T/C lookup, one value per entry

>  <MOLECULE>
CC(=O)NC1C(OC(=O)c2ccccc2)OC2COCOC2C1OC(=O)c1ccccc1 (centres undefined)

>  <T/C>
90 % of control

$$$$
>  <MOLECULE>
Cc1cc(Cl)ccc1OC(=O)Nc1ccccc1Cl

>  <T/C>
97 % of control

$$$$
>  <MOLECULE>
CC(=O)n1c2c(n(C(C)=O)c1=O)CCCC2

>  <T/C>
102 % of control

$$$$
>  <MOLECULE>
O=C(C1=CCCC1)C1=CCCC1

>  <T/C>
105 % of control

$$$$
